Experiment: physchem
Conditions: water, solubility in water
MEASURE_NAME: solubility

Asked: Which solubility reading was recorded for the molecule `CC(C)c1cccc(C(C)C)c1O` ?
Given back: ~150 µg/mL
